Cited source: paper PMC8552062

biological target: UGT2B7 (Homo sapiens); test: UGT2B7 inhibition in HLM (3′-azide-3′-deoxythymidine glucuronidation); assay type: in vitro ADME; set-up: tissue XenoTech LLC; host or cells: pooled human liver microsomes; conditions: human, human liver microsomes (HLM), probe 3′-azide-3′-deoxythymidine; HLM, 100 μM test compound
Sequence (P16662 24-529): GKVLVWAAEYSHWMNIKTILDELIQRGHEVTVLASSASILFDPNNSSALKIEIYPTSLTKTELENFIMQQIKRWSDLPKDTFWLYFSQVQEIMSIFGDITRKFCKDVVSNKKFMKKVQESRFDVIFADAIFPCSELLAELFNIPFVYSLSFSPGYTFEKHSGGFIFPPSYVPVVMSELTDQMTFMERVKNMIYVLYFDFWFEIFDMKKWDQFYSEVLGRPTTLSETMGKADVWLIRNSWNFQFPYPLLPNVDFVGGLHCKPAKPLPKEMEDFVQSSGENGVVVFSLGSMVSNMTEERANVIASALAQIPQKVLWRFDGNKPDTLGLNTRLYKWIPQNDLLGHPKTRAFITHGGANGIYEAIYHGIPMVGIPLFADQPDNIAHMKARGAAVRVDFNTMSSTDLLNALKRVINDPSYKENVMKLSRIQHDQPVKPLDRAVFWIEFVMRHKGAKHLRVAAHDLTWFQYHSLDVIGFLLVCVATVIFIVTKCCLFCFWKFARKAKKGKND
Below is a list of entries, each paired with its recorded inhibition at 100 µM value.
Express the result in % but write the number alone.

CCCSc1nc(N[C@@H]2C[C@H]2c2ccc(F)c(F)c2)c2nnn([C@@H]3C[C@H](OCCO)[C@@H](O)[C@H]3O)c2n1 ... 39

// switching to the query compound
Query string: Consider the compound CCCSc1nc(N[C@@H]2C[C@H]2c2ccc(F)c(F)c2)c2nnn([C@@H]3C[C@H](OCCO[C@@H]4O[C@H](C(=O)O)[C@@H](O)[C@H](O)[C@H]4O)[C@@H](O)[C@H]3O)c2n1 [Ticagrelor-O-Glu, ticagrelor-O-glucuronide] . State its measured inhibition at 100 µM.
Result string: 30.7

====

Biological target: CYP2C19 (Homo sapiens)
Construct: co-incubation ticagrelor-O-Glu with selective P450 probe substrates in HLM; tissue XenoTech LLC; host or cells: pooled human liver microsomes
Test: CYP2C19 inhibition in HLM ([S]-mephenytoin 4′-hydroxylase)
Type: in vitro ADME
Conditions: human, human liver microsomes, pH 7.4, probe mephenytoin (20 μM), S-4-hydroxy mephenytoin formation; HLM, 100 μM ticagrelor-O-Glu; read-out: inhibition of CYP2C19 enzyme activity
Description: The potential inhibitory effects of ticagrelor-O-Glu on the activities of major CYPs, i.e., CYP2B6, CYP2C8, CYP2C9, CYP2C19, CYP2D6, and CYP3A4, were evaluated by co-incubation ticagrelor-O-Glu with selective P450 probe substrates in HLM. […] The formation of respective metabolites was determined to reflect P450 isoform activities. […] The percent inhibition relative to the control was calculated to indicate the UGTs or CYPs inhibition. […]
assay.metric: inhibition at 100 µM (%)
Numeric only. Scale: %

Query string: Name the recorded inhibition at 100 µM of the compound listed here: CCCSc1nc(N[C@@H]2C[C@H]2c2ccc(F)c(F)c2)c2nnn([C@@H]3C[C@H](OCCO[C@@H]4O[C@H](C(=O)O)[C@@H](O)[C@H](O)[C@H]4O)[C@@H](O)[C@H]3O)c2n1 [Ticagrelor-O-Glu, ticagrelor-O-glucuronide]
Result string: 83.6

====

molecular target: CYP2C19 (Homo sapiens, UniProt P33261); construct: co-incubation ticagrelor-O-Glu with selective P450 probe substrates in HLM; tissue XenoTech LLC; host or cells: pooled human liver microsomes; assay: CYP2C19 inhibition in HLM ([S]-mephenytoin 4′-hydroxylase); format: in vitro ADME; details: human, human liver microsomes, pH 7.4, probe mephenytoin (20 μM), S-4-hydroxy mephenytoin formation; HLM, 10 μM ticagrelor-O-Glu; read-out: inhibition of CYP2C19 enzyme activity
Sequence (P33261 whole entry): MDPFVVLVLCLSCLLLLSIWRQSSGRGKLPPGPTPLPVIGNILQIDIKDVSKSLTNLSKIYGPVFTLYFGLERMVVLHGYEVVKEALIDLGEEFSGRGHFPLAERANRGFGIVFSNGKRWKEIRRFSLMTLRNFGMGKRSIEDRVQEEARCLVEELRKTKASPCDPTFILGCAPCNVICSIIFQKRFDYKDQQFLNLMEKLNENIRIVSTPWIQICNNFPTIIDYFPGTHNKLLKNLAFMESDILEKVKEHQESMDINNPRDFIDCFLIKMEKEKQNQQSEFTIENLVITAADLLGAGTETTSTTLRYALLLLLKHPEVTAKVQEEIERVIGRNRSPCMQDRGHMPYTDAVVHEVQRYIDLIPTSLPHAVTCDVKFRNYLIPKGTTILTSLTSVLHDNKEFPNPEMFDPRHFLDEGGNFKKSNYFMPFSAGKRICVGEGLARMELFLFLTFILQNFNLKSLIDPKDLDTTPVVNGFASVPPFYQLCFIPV
assay.metric: inhibition at 10 μM (%)
Report as a plain number; the unit % is understood.

Query string: Output reported inhibition at 10 μM of the molecule CCCSc1nc(N[C@@H]2C[C@H]2c2ccc(F)c(F)c2)c2nnn([C@@H]3C[C@H](OCCO[C@@H]4O[C@H](C(=O)O)[C@@H](O)[C@H](O)[C@H]4O)[C@@H](O)[C@H]3O)c2n1 [Ticagrelor-O-Glu, ticagrelor-O-glucuronide] on CYP2C19 (Homo sapiens, UniProt P33261).
Result string: 32.7
